// provenance: patent US10729695B2

Tested on: delayed type hypersensitivity (DTH) mediated inflammation in mice
Assay: In vivo model of delayed type hypersensitivity (DTH), paw inflammation score
Set-up: species or system CF-1 mice
Details: 5 mg/kg intraperitoneal, four doses; paw scored 16 hrs after mBSA; scale 1-5; n=5 mice/group
observable: Inflammation Score Compound ± SEM

{"compound": "COc1cc(NC(C)=O)c(Cl)cc1C(=O)Nc1nccs1 [CB-6]", "dataValue": "3.0 ± 0.71/3.6 ± 0.55"}
{"compound": "C=CCOc1ccc2c(C(F)(F)F)cc(=O)oc2c1 [CB-2]", "dataValue": "3.2 ± 0.45/3.4 ± 0.55"}
{"compound": "OC(Cn1ccc2ccccc21)Cn1cnc2ccccc21 (stereo not shown) [CB-4]", "dataValue": "3.0 ± 0.71/3.4 ± 0.55"}
{"compound": "Oc1cccc(Nc2nc(-c3ccc(F)cc3F)cs2)c1 [CB-5]", "dataValue": "3.6 ± 0.55/3.4 ± 0.55"}
